# System tested: Pro-neuregulin-1, membrane-bound isoform (Homo sapiens) (UniProt Q02297)
# Sequence (Q02297 whole entry, looked up, canonical isoform): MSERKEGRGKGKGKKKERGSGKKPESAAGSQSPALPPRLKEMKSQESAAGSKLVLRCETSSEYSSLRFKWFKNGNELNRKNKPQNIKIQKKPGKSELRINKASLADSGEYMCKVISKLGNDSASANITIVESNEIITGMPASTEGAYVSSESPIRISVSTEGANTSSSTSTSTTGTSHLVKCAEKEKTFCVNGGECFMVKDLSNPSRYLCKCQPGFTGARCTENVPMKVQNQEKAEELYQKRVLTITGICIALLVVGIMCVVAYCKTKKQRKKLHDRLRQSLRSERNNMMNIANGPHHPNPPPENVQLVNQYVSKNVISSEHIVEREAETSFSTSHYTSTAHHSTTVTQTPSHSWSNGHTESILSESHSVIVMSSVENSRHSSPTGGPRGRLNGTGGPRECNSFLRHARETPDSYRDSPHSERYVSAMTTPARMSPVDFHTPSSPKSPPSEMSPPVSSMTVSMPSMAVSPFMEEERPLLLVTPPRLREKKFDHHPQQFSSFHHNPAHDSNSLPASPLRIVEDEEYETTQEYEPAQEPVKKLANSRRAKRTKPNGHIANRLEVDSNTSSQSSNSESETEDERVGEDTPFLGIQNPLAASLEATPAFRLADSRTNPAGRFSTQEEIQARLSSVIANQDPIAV
# Protocol: NRG1 binders on small-molecule microarrays, primary screen, psychiatric disease protein project, biochemical, small-molecule microarray, fluorescence 635/667 (AID 1075);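 further: score combines 667 nm spot fluorescence with signal to noise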
# Protocol conditions: NRG1 binding, 635 nm fluorescence, higher = more signal

| Compound | composite z-score |
| --- | --- |
| NC(=O)NCC#Cc1ccc2c(c1)[C@]1(C(=O)N2)[C@H](c2ccc(O)cc2)N2[C@H](c3ccccc3)[C@H](c3ccccc3)OC(=O)[C@H]2[C@@H]1C(=O)O | 1.08 |
| COc1ccc(CCNC(=O)[C@@]2(Sc3ccc(C)cc3)CC(=O)N(C3Cc4ccccc4C3)[C@@H]2c2ccc(CO)cc2I)cc1 | 1.54 |
| COc1cc(C(O)C2C=CC3C(=O)NC(=O)C3N2Nc2ccccn2)cc(OC)c1OC (centres undefined) | 0.802 |
| CCCCN1CC=CC23O[C@@H]4C=CCCOC(=O)C4[C@H]2C(=O)N(CCCCCCO)[C@@H]3C1=O (some centres undefined) | 1.2 |

----------
# Protocol: HepG2 cell viability effects, profiling panel, calcein-AM fluorescence, 48 h, basal (AID 1164)
# Protocol conditions: higher = more signal
satisfied means recorded z-score is -0.6 or above; not satisfied means it is below -0.6.

| Compound | Discrete label |
| --- | --- |
| CCC(CC)C(O)C1C=CC2C(=O)NC(=O)C2N1Nc1ccc(Cl)cc1Cl (stereo not drawn) | not satisfied |
| O=C1C[C@@](C(=O)NCC(F)(F)F)(c2ccc([N+](=O)[O-])cc2)[C@@H](c2ccc(CO)cc2I)N1C1CCCCC1 | not satisfied |
| C=C(COC)/C(=C/C[C@@H](OC(=O)c1ccncc1)c1ccc(CO)o1)c1cc(C(=O)OC)ccc1OC | satisfied |
| CN(C)CCCC[C@@H]1NC(=O)[C@@H]2C[C@H](C(=O)NCCCCCCN)[C@H](c3cccc(OCCO)c3)N2C1=O | not satisfied |
| CCCC#C[Si](O[C@H](CC)c1cn(Cc2cccc(Cl)c2)nn1)(C(C)C)C(C)C | satisfied |
| COc1ccc(-c2cc3c(c(-c4ccc(Oc5ccccc5)cc4)n2)[Si](C(C)C)(C(C)C)OC3)cn1 | satisfied |
| COc1cc(C(O)C2C=CC3C(=O)NC(=O)C3N2Nc2ccccn2)cc(OC)c1OC (stereo not drawn) | not satisfied |
| CC(C)C[C@@H]1NC(=O)[C@@H]2C[C@H](C(=O)O)[C@H](c3cccc(OCCO)c3)N2C1=O | satisfied |

----------
# Test system: PRMT1 (protein arginine N-methyltransferase 1)
# Protocol: PRMT1 binders on small-molecule microarrays, primary screen, biochemical, small-molecule microarray, 635 nm fluorescence (AID 1088);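 further: binding of Prmt1 protein to compounds spotted on small-molecule microarray slides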
# Protocol conditions: small-molecule microarray binding, higher = more signal
Metric name: composite z-score

| Molecule | System tested | Meas value |
| --- | --- | --- |
| CCC(CC)C(O)C1C=CC2C(=O)NC(=O)C2N1Nc1ccccn1 (stereo unspecified) | PRMT1 (protein arginine N-methyltransferase 1) | -0.26 |
| COC(=O)[C@H](Cc1ccccc1)N1CC2=C[C@@H](C3CC3)n3c(=O)n(C)c(=O)n3[C@H]2[C@@H]1[C@@H](O)Cc1ccccc1 | PRMT1 (protein arginine N-methyltransferase 1) | 1.06 |
| O=C1C[C@]2(c3ccc([N+](=O)[O-])cc3)C(=O)N(CC(F)(F)F)c3cc(CO)ccc3[C@H]2N1C1CCCCC1 | PRMT1 (protein arginine N-methyltransferase 1) | 0.137 |
| COC(=O)[C@@]1(Cc2ccc(OC)cc2)[C@H]2c3cc(C(=O)N(C)C)n(C)c3C[C@H]2CN1C(=O)c1ccccc1 | PRMT1 (protein arginine N-methyltransferase 1) | 1.4 |
| COc1ccc([Si](C)(C)[C@@H]2[C@@H](CCO)O[C@]3(C(=O)N(Cc4ccc(N(C=O)c5ccccc5)cc4)c4ccccc43)[C@H]2C)cc1 | PRMT1 (protein arginine N-methyltransferase 1) | 0.883 |
| Cc1ccccc1C(O)C1C=CC2C(=O)N(c3ccccc3)C(=O)C2N1Nc1ccc(C(C)C)cc1 (stereo unspecified) | PRMT1 (protein arginine N-methyltransferase 1) | 1.13 |
| CCCCC(CC)C(O)C1C=CC2C(=O)N(Cc3ccccc3)C(=O)C2N1n1cnnc1 (stereo unspecified) | PRMT1 (protein arginine N-methyltransferase 1) | 0.249 |
| C[N+](C)(C)CCCC[C@@H]1NC(=O)[C@H]2C[C@@H](C(=O)NCCCCCCNC(=O)CS)[C@@H](c3cccc(OCCO)c3)N2C1=O | PRMT1 (protein arginine N-methyltransferase 1) | -0.452 |
| COc1cccc(-c2cccc(=O)o2)c1 | PRMT1 (protein arginine N-methyltransferase 1) | 0.274 |
| O[C@@H](Cc1ccccc1)[C@H]1C2C=CCCC=C2CN1Cc1cccc(Cl)c1 (stereo partly specified) | PRMT1 (protein arginine N-methyltransferase 1) | 1.42 |
| COCCCNC(=O)[C@@H]1c2ccccc2C(=O)N(Cc2ccccc2Cl)[C@H]1c1ccc(CO)cc1 | PRMT1 (protein arginine N-methyltransferase 1) | 1.53 |
| COc1ccc([Si](C)(C)[C@H]2[C@H](CCO)O[C@@]3(C(=O)N(Cc4ccc(N(C=O)c5ccccc5)cc4)c4ccccc43)[C@@H]2C)cc1 | PRMT1 (protein arginine N-methyltransferase 1) | 0.258 |
| CCCCCN1CC=CC23O[C@@H]4/C=C\CCC(C)OC(=O)C4[C@H]2C(=O)N(C(C)CO)[C@@H]3C1=O (stereo partly specified) | PRMT1 (protein arginine N-methyltransferase 1) | 1.09 |
| COc1ccc(CCNC(=O)[C@@H]2c3ccccc3C(=O)N(Cc3ccccc3Cl)[C@H]2c2ccc(CO)cc2)cc1 | PRMT1 (protein arginine N-methyltransferase 1) | 0.533 |
| COCCOC(=O)N1C(=O)[C@@]2(c3cc(C#CCCO)ccc31)[C@H](C(N)=O)[C@H]1C(=O)O[C@H](c3ccccc3)[C@H](c3ccccc3)N1[C@@H]2c1ccc(O)cc1 | PRMT1 (protein arginine N-methyltransferase 1) | -0.101 |
| CCOC(=O)C[C@H]1[C@H](OC(=O)c2ccc(C(=O)c3ccccc3)cc2)[C@@H](NC(=O)c2ccc3ccccc3n2)c2cc(OCCCO)ccc2N1C(=O)c1ccccc1 | PRMT1 (protein arginine N-methyltransferase 1) | 1.23 |

----------
# Test system: XIP peptide (Xip251-270)
# Protocol: small-molecule binders of XIP peptide, primary screen, biochemical, small-molecule microarray, fluorescence 635/667 nm, 0.5 µg/mL protein (AID 1183)
# Protocol conditions: small-molecule microarray binding, fluorescence 635 nm; higher = more signal

| Compound | composite z-score |
| --- | --- |
| CC1(C)[C@@H]2CC(C(O)C3C=CC4C(=O)N(Cc5ccccc5)C(=O)C4N3n3cnnc3)=C[C@H]1C2 (some centres undefined) | -0.0686 |
| COC(=O)[C@@]1(CCC(=O)OC(C)(C)C)N=C(c2ccc(OCCCO)cc2)O[C@H]1c1ccccc1N=[N+]=[N-] | 0.664 |
| CC(C)[Si](C#Cc1ccc(Oc2ccccc2)cc1)(O[Si](C#Cc1ccc(Oc2ccccc2)cc1)(C(C)C)C(C)C)C(C)C | -0.0968 |
| COc1cccc(-c2cccc(=O)o2)c1 | 0.688 |

----------
Reported composite z-score is given for each of the following molecules.
# Test system: Sonic hedgehog protein (Shh)
# Protocol: small-molecule binders of Shh protein, primary screen, biochemical, small-molecule microarray, 635/667 nm fluorescence (AID 1151);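 further: Shh protein binding to compounds spotted on small-molecule microarray slides; score combines spot fluorescence intensity with signal-to-noise across triplicate slides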
# Protocol conditions: small-molecule microarray binding, 635 nm fluorescence; higher = more signal

| Molecule | composite z-score |
| --- | --- |
| CN1C=C(C(=O)OCCS(C)(=O)=O)C(C(=O)OCCS(C)(=O)=O)=CC(c2ccc(CO)cc2)=CC1C1CC1 (stereo unspecified) | 0.457 |
| CO[C@H]1O[C@H](CO)[C@@H](OC(=O)Nc2ccccc2)[C@H](OC(=O)Nc2ccccc2)[C@@H]1OC(=O)Nc1ccccc1 | 1.48 |
| COCCOC(=O)N1C(=O)[C@@]2(c3cc(C#CCC(C(=O)OC)C(=O)OC)ccc31)[C@H](c1ccccc1OCCO)N1[C@H](c3ccccc3)[C@H](c3ccccc3)OC(=O)[C@H]1[C@@H]2C(=O)N1CCN(c2ncccn2)CC1 | 1.89 |
| COC(=O)C(CC#Cc1ccc2c(c1)[C@]1(C(=O)N2)[C@H](c2ccc(OCCO)cc2)N2[C@H](c3ccccc3)[C@H](c3ccccc3)OC(=O)[C@H]2[C@@H]1C(=O)N1CCc2cc(OC)c(OC)cc2C1)C(=O)OC | 1.91 |
| C=C[C@H](C)[C@@H](OC(=O)Nc1ccc(OC)cc1)c1ccc(O)c2ccccc12 | 1.36 |
| C=CC[C@]1(C(=O)NCc2ccccc2)N=C(c2ccc(OCCCO)cc2)O[C@H]1c1ccccc1N=[N+]=[N-] | -0.231 |
